Value source: ChEMBL document CHEMBL1127822

- MEASURED_ON: Aromatase (Homo sapiens)
- Sequence (P11511 whole entry): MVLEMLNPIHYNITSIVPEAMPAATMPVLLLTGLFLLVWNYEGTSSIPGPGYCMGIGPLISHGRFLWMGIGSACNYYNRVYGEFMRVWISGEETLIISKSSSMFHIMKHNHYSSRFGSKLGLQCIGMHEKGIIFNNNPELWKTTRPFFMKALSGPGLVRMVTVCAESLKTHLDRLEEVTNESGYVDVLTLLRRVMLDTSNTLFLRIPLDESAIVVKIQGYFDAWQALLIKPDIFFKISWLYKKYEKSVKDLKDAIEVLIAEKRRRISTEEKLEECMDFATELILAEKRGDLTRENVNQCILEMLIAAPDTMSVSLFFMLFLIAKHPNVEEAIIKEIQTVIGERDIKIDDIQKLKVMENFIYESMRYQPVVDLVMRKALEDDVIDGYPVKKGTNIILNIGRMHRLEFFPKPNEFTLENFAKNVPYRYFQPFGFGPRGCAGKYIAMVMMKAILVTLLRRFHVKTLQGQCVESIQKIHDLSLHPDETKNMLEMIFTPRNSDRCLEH
PARAMETER: pIC50
# pIC50 = -log10(concentration in molar units)

Examples from the recorded data:
>>> numeric_readout("CCCC[C@H]1CC2C3CCC(=O)C3(C)CCC2C2(C)CCC(=O)C=C12 (stereo not given in full)")
6.10
>>> numeric_readout("CC12CCC3C(C[C@H](c4ccccc4)C4=CC(=O)CCC43C)C1CCC2=O (stereo not given in full)")
5.96
>>> numeric_readout("CC(C)[C@H]1CC2C3CCC(=O)C3(C)CCC2C2(C)CCC(=O)C=C12 (stereo not given in full)")
5.85
>>> numeric_readout("C[C@@H]1CC2C3CCC(=O)C3(C)CCC2C2(C)CCC(=O)C=C12 (stereo not given in full)")
6.14

Simply: CC(C)[C@@H]1CC2C3CCC(=O)C3(C)CCC2C2(C)CCC(=O)C=C12 (stereo not given in full) , Aromatase (Homo sapiens), pIC50 = 5.96
